ASSAY_SYSTEM: Caspase 3 (Homo sapiens)
Sequence (P42574 29-175 limits assumed): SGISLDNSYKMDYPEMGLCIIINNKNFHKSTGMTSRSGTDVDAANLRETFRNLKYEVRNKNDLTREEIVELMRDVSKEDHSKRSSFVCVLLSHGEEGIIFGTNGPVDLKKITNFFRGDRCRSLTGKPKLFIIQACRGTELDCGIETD
Sequence (P42574 176-277 limits assumed): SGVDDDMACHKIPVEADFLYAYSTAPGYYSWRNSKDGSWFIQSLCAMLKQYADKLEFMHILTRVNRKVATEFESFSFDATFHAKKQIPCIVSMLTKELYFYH
PROTOCOL_DETAILS: Caspase 3 activity assay
Format: biochemical
CONDITION_DESCRIPTION: 500 nM Ac-DEVD-AMC, 3.2 nM enzyme, 30 min pre-incubation at 25° C., 60 min at 37° C.; sigmoidal fit; AF: Autofluorescent; read-out: Casp3 (inhibition of cysteine protease activity)
ENDPOINT: IC50

Here's what some known entries look like.
MOLECULE | TEST_RESULT
CCc1ccc2c(c1)-c1nc(C#N)c(C#N)nc1C2=O [Example 32] | 3.6 µM
N#Cc1nc2c(nc1C#N)-c1ccccc1C2=NOCc1ccccc1 (mixture of isomers) [Example 13C] | > 100 µM

Exercise: Name the recorded IC50 for CCON=C1c2ccccc2-c2nc(C(N)=O)c(C#N)nc21 [Example 34b] .
Solution: 0.624 µM

Exercise: Name the recorded IC50 for N#Cc1nc2c(nc1C#N)C(=O)c1ccccc1C2=O [Example 20] .
Solution: > 100 µM

Exercise: Name the recorded IC50 for COc1ccc2c(c1)-c1nc(C#N)c(C#N)nc1C2=O [Example 17a] .
Solution: 10 µM

Exercise: Name the recorded IC50 for N#Cc1nc2c(nc1N)-c1ccccc1C2=O [Example 7] .
Solution: > 100 µM

Source: patent US8648076B2
